- target: Alkaline phosphatase, placental type (Homo sapiens) (UniProt P05187)
- Sequence (P05187 whole entry, looked up): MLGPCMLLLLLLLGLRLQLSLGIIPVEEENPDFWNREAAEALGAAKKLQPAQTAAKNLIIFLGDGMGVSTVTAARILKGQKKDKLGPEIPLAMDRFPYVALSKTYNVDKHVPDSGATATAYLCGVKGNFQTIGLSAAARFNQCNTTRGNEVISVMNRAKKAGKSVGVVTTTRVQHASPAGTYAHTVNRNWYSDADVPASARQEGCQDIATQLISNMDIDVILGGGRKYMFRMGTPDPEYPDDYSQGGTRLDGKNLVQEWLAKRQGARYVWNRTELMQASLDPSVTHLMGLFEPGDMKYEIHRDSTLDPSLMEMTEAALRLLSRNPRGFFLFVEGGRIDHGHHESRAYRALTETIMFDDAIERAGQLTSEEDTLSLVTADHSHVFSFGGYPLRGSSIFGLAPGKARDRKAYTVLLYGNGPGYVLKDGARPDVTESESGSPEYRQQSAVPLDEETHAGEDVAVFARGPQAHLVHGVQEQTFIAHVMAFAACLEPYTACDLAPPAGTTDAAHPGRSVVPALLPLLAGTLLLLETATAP
- protocol_notes: PLAP enzyme activators, biochemical, luminescence, HTS (AID 696)
- condition_info: purified PLAP enzyme, luminescent substrate read-out

| cpd_smiles | EC50 |
| --- | --- |
| O=[N+]([O-])c1ccc(Sc2nnnn2-c2ccccc2)c(Cl)c1 | 26.3 µM |
| COc1cccc(NCc2cc3c(C(C)(C)C)nn(-c4ccccc4)c3[nH]c2=O)c1 | 78 µM |
| Cc1ccc(-n2c([O-])nc(-[n+]3ccccc3)c2C=O)cc1 | 9.08 µM |
| Cc1nn(C)cc1/C=N\NC(=O)c1ccc2c(c1)c(C)c(C)n2Cc1ccccc1 | 72.1 µM |
| COc1ccc(-c2nnc(-c3ccc(Br)o3)o2)cc1OC | 25.9 µM |

Source listed as PubChem BioAssay AID696.
